# Tested on: Setaria viridis
# assay: Pre-emergence herbicidal action, SETVI
# Format: in vivo
# condition-notes: 20 g/ha
measure: Herbicidal efficacy against SETVI
# answer = number (no unit)

Example cases with answers are listed next.
{"columns": ["compound", "reported"],
 "data": [
  ["Cn1nnnc1NC(=O)c1ccc(C(F)F)c(S(C)(=O)=O)c1Cl", 100],
  ["Cn1nnnc1NC(=O)c1ccc(C(F)F)c([S+](C)[O-])c1Cl (centres unmarked)", 100],
  ["Cc1c(C(=O)Nc2nnnn2C)ccc(C(F)F)c1S(C)(=O)=O", 70],
  ["CSc1c(C(F)F)ccc(C(=O)Nc2nnnn2C)c1C", 70]
]}

Pending compound:
Ask: Bench note: what Herbicidal efficacy against SETVI did CSc1c(C(F)F)ccc(C(=O)Nc2nnnn2C)c1Cl show?
Result: 90

====

Listed next: entries and their corresponding Herbicidal activity STEME.
# Test system: Stellaria media
# assay: Pre-emergence herbicidal action, STEME
# Format: in vivo
# condition-notes: dosage 320 g/ha, scored visually after 3 weeks vs untreated controls
Provide the reading as a plain figure in %.

{"columns": ["molecule", "reported"],
 "data": [
  ["CSc1c(C(F)F)ccc(C(=O)Nc2nnc(C)o2)c1Cl [Example 7-47]", 90],
  ["CCn1nnnc1NC(=O)c1ccc(C(F)F)c(S(C)(=O)=O)c1F [Example 2-39]", 100],
  ["CCn1nnnc1NC(=O)c1ccc(C(F)F)c(SC)c1Cl [Example 2-49]", 90],
  ["Cn1ncnc1NC(=O)c1ccc(C(F)F)c(S(C)(=O)=O)c1F [Example 4-39]", 100]
]}

Ask: Bench note: what Herbicidal activity STEME did CCSc1c(C(F)F)ccc(C(=O)Nc2nnnn2CC)c1Br [Example 2-64] show?
Result: 100

====

# Test system: Setaria viridis
# assay: Pre-emergence herbicidal action, SETVI
# Type: in vivo
# condition-notes: 80 g/ha
Listed next: entries and their corresponding Herbicidal efficacy against SETVI.
# answer = number (no unit)

{"columns": ["molecule", "Herbicidal efficacy against SETVI"],
 "data": [
  ["Cc1c(C(=O)Nc2ncnn2C)ccc(C(F)F)c1S(C)(=O)=O", 90],
  ["CSc1c(C(F)F)ccc(C(=O)Nc2nnnn2C)c1C", 100],
  ["CSc1c(C(F)F)ccc(C(=O)Nc2ncnn2C)c1C", 80],
  ["Cc1c(C(=O)Nc2nnnn2C)ccc(C(F)F)c1S(C)(=O)=O", 100],
  ["Cn1nnnc1NC(=O)c1ccc(C(F)F)c(S(C)(=O)=O)c1Cl", 100]
]}

Ask: Request - read-out Herbicidal efficacy against SETVI | tested on Setaria viridis | molecule Cn1nnnc1NC(=O)c1ccc(C(F)F)c([S+](C)[O-])c1Cl (stereo not shown)
Result: 100

Ask: Request - read-out Herbicidal efficacy against SETVI | tested on Setaria viridis | molecule Cc1c(C(=O)Nc2nnnn2C)ccc(C(F)F)c1[S+](C)[O-] (stereo not shown)
Result: 90

====

# Test system: Stellaria media
# assay: Pre-emergence herbicidal action, STEME
# Format: in vivo
# condition-notes: dosage 320 g/ha, scored visually after 3 weeks vs untreated controls
measure: Herbicidal activity STEME
Answer with the value and then the unit.

Example cases with answers are listed next.
{"columns": ["compound", "reported"],
 "data": [
  ["CC[S+]([O-])c1c(C(F)F)ccc(C(=O)Nc2nnc(C)o2)c1I (stereo not shown)", "100%"],
  ["Cc1nnc(NC(=O)c2ccc(C(F)F)c(S(C)(=O)=O)c2C)o1", "100%"],
  ["CCSc1c(C(F)F)ccc(C(=O)Nc2nnnn2CC)c1C", "90%"],
  ["CCc1c(C(=O)Nc2nnnn2CC)ccc(C(F)F)c1[S+]([O-])CC (stereo not shown)", "100%"],
  ["CC[S+]([O-])c1c(C(F)F)ccc(C(=O)Nc2ncnn2C)c1F (stereo not shown)", "80%"]
]}

Ask: Bench note: what Herbicidal activity STEME did CCSc1c(C(F)F)ccc(C(=O)Nc2ncnn2C)c1Br show?
Result: 100%

Ask: Bench note: what Herbicidal activity STEME did CCSc1c(C(F)F)ccc(C(=O)Nc2nnnn2C)c1Br show?
Result: 100%

Ask: Bench note: what Herbicidal activity STEME did CCSc1c(C(F)F)ccc(C(=O)Nc2nnc(C)o2)c1C show?
Result: 90%

Ask: Bench note: what Herbicidal activity STEME did CCn1nnnc1NC(=O)c1ccc(C(F)F)c([S+](C)[O-])c1F (stereo not shown) show?
Result: 100%

Ask: Bench note: what Herbicidal activity STEME did CCc1c(C(=O)Nc2nnnn2C)ccc(C(F)F)c1S(C)(=O)=O show?
Result: 100%

Ask: Bench note: what Herbicidal activity STEME did CCS(=O)(=O)c1c(C(F)F)ccc(C(=O)Nc2ncnn2C)c1C show?
Result: 90%

Ask: Bench note: what Herbicidal activity STEME did CCn1nnnc1NC(=O)c1ccc(C(F)F)c(S(C)(=O)=O)c1C1CC1 show?
Result: 100%

Ask: Bench note: what Herbicidal activity STEME did CCn1nnnc1NC(=O)c1ccc(C(F)F)c([S+]([O-])CC)c1F (stereo not shown) show?
Result: 100%

Ask: Bench note: what Herbicidal activity STEME did CSc1c(C(F)F)ccc(C(=O)Nc2ncnn2C)c1C show?
Result: 90%

Ask: Bench note: what Herbicidal activity STEME did Cn1nnnc1NC(=O)c1ccc(C(F)F)c([S+](C)[O-])c1F (stereo not shown) show?
Result: 100%

Ask: Bench note: what Herbicidal activity STEME did CCCn1nnnc1NC(=O)c1ccc(C(F)F)c([S+](C)[O-])c1C (stereo not shown) show?
Result: 90%

Ask: Bench note: what Herbicidal activity STEME did Cn1nnnc1NC(=O)c1ccc(C(F)F)c([S+](C)[O-])c1I (stereo not shown) show?
Result: 100%

Ask: Bench note: what Herbicidal activity STEME did CCS(=O)(=O)c1c(C(F)F)ccc(C(=O)Nc2nnnn2C)c1Cl show?
Result: 100%

Ask: Bench note: what Herbicidal activity STEME did CCc1c(C(=O)Nc2nnnn2C)ccc(C(F)F)c1[S+]([O-])CC (stereo not shown) show?
Result: 100%

====

# Tested on: Stellaria media
# assay: Pre-emergence herbicidal action, STEME
# Assay type: in vivo
# condition-notes: dosage 320 g/ha, scored visually after 3 weeks vs untreated controls
measure: Herbicidal activity STEME (%)
Provide the reading as a plain figure in %.

{"columns": ["molecule", "target-or-system", "Herbicidal activity STEME (%)"],
 "data": [
  ["CCS(=O)(=O)c1c(C(F)F)ccc(C(=O)Nc2nnnn2C)c1C", "Stellaria media", 100],
  ["CCc1c(C(=O)Nc2nnnn2C)ccc(C(F)F)c1S(=O)(=O)CC", "Stellaria media", 100],
  ["CC[S+]([O-])c1c(C(F)F)ccc(C(=O)Nc2nnnn2C)c1F (stereo not drawn)", "Stellaria media", 100]
]}

Ask: Bench note: what Herbicidal activity STEME did CCCn1nnnc1NC(=O)c1ccc(C(F)F)c(SC)c1C show?
Result: 100

Ask: Bench note: what Herbicidal activity STEME did CCSc1c(C(F)F)ccc(C(=O)Nc2nnnn2C)c1C show?
Result: 100

Ask: Bench note: what Herbicidal activity STEME did CSc1c(C(F)F)ccc(C(=O)Nc2nnnn2C)c1C1CC1 show?
Result: 100

Ask: Bench note: what Herbicidal activity STEME did CCn1nnnc1NC(=O)c1ccc(C(F)F)c(S(=O)(=O)CC)c1I show?
Result: 100

Ask: Bench note: what Herbicidal activity STEME did Cn1nnnc1NC(=O)c1ccc(C(F)F)c([S+](C)[O-])c1Br (stereo not drawn) show?
Result: 100

Ask: Bench note: what Herbicidal activity STEME did CCSc1c(C(F)F)ccc(C(=O)Nc2nnnn2C)c1F show?
Result: 100

====

Listed next: entries and their corresponding Herbicidal efficacy against SETVI.
# System: Setaria viridis
# assay: Post-emergence herbicidal action, SETVI
# Format: in vivo
# condition-notes: 20 g/ha
# answer = number (no unit)

Example cases with answers are listed next.
{"columns": ["compound", "reported"],
 "data": [
  ["Cn1nnnc1NC(=O)c1ccc(C(F)F)c(S(C)(=O)=O)c1Cl", 100],
  ["Cc1c(C(=O)Nc2ncnn2C)ccc(C(F)F)c1S(C)(=O)=O", 40],
  ["CSc1c(C(F)F)ccc(C(=O)Nc2nnnn2C)c1C", 100],
  ["CSc1c(C(F)F)ccc(C(=O)Nc2ncnn2C)c1C", 60]
]}

Pending compound:
Ask: Bench note: what Herbicidal efficacy against SETVI did Cc1c(C(=O)Nc2nnnn2C)ccc(C(F)F)c1[S+](C)[O-] (centres unmarked) show?
Result: 90

====

# System: Amaranthus retroflexus
# assay: Post-emergence herbicidal action, AMARE
# Type: in vivo
# condition-notes: 80 g/ha, Table D
measure: herbicidal activity AMARE
Answer with the value and then the unit.

Ask: Bench note: what herbicidal activity AMARE did Cc1c(C(=O)Nc2nnnn2C)ccc(C(F)F)c1[S+](C)[O-] (stereo not drawn) [Example 1-2] show?
Result: 80%

Ask: Bench note: what herbicidal activity AMARE did CCSc1c(C(F)F)ccc(C(=O)Nc2nnnn2C)c1F [Example 1-40] show?
Result: 100%

Ask: Bench note: what herbicidal activity AMARE did CCc1c(C(=O)Nc2nnc(C)o2)ccc(C(F)F)c1SC [Example 7-11] show?
Result: 90%

Ask: Bench note: what herbicidal activity AMARE did CCSc1c(C(F)F)ccc(C(=O)Nc2nnc(C)o2)c1C [Example 7-4] show?
Result: 100%

Ask: Bench note: what herbicidal activity AMARE did CCc1c(C(=O)Nc2nnc(C)o2)ccc(C(F)F)c1S(=O)(=O)CC [Example 7-16] show?
Result: 100%

Ask: Bench note: what herbicidal activity AMARE did CCn1nnnc1NC(=O)c1ccc(C(F)F)c(S(=O)(=O)CC)c1C1CC1 [Example 2-30] show?
Result: 100%

Ask: Bench note: what herbicidal activity AMARE did CCn1nnnc1NC(=O)c1ccc(C(F)F)c(S(=O)(=O)CC)c1F [Example 2-42] show?
Result: 90%

Ask: Bench note: what herbicidal activity AMARE did Cn1nnnc1NC(=O)c1ccc(C(F)F)c([S+](C)[O-])c1Br (stereo not drawn) [Example 1-62] show?
Result: 100%

Ask: Bench note: what herbicidal activity AMARE did CCn1nnnc1NC(=O)c1ccc(C(F)F)c([S+]([O-])CC)c1C1CC1 (stereo not drawn) [Example 2-29] show?
Result: 100%

Where do these numbers come from? They come from patent US20230183193A1.
